- Tested on: HOP-18
- assay.text: NCI tumour cell line growth inhibition, 48 h
Calls of active or inactive are those of the source. Rule as the data show it: active = GI50 up to about 1.1 µM and inactive = higher.
measured.attribute: GI50

[[record]]
molecule = "COC1C(CN[N+](=O)CC2OC3OC(C)(C)OC3C2OC)OC2OC(C)(C)OC21 (stereo not given)"
test_system = "HOP-18"
assay_value = "> 100 µM (inactive)"

[[record]]
molecule = "COC(=O)CCC(NC(=S)N/N=C/c1ccccn1)C(=O)OC (stereo not given)"
test_system = "HOP-18"
assay_value = "> 100 µM (inactive)"

[[record]]
molecule = "O=C(O)CCN(CCCN(CCC(=O)O)CCC(=O)O)CCC(=O)O"
test_system = "HOP-18"
assay_value = "> 100 µM (inactive)"

[[record]]
molecule = "OCC1OC(NO)C(O)C(O)C1O (stereo not given)"
test_system = "HOP-18"
assay_value = "> 100 µM (inactive)"

[[record]]
molecule = "CCOC(=O)C(C(=O)OCC)=C1N[C@H](C(=O)OCC)CS1"
test_system = "HOP-18"
assay_value = "> 100 µM (inactive)"

[[record]]
molecule = "N#C/C(N)=N/c1ccccc1"
test_system = "HOP-18"
assay_value = "> 100 µM (inactive)"

[[record]]
molecule = "Cc1cc(=O)n2c3c(c4c(cc13)c(CO)cc(=O)n4C)OC2"
test_system = "HOP-18"
assay_value = "19.5 µM (inactive)"

[[record]]
molecule = "Cc1c2cnccc2c(C)c2c1c1ccccc1n2CCOC(=O)c1ccccc1"
test_system = "HOP-18"
assay_value = "20.7 µM (inactive)"

[[record]]
molecule = "CC(C)(C)c1cc(C(=O)O)c(C(c2ccccc2)c2ccccc2C(=O)O)c(C(=O)O)c1 (stereo not given)"
test_system = "HOP-18"
assay_value = "> 100 µM (inactive)"

[[record]]
molecule = "C=C1c2c(cc3c(c2O)c(=O)c2ccccc2n3C)OC1(C)C"
test_system = "HOP-18"
assay_value = "9.79 µM (inactive)"


For each entry beneath this line, provide reported GI50.
1. Cc1cccc(C(C)C)c1N1C(=O)C(=O)C(c2nc3ccccc3o2)C(=O)C1=O
2. CC1C(=O)C(C)C(c2cccs2)N(N=O)C1c1cccs1 (stereo not given)
3. COc1nc(=O)n(COC(CO)CN2C(=O)c3ccccc3C2=O)cc1Cc1cccc(OCc2ccccc2)c1 (stereo not given)
4. CCCCCCCCCCCCCP(=O)(OC)OC
5. COc1ccc2c(CN3CCCCC3CO)cc3cc(OC)c(OC)cc3c2c1 (stereo not given)
6. COc1ccccc1/C=C1\C(=O)N(C(=O)Cc2ccccc2)N=C1C
7. CC1(c2ccccc2)CC(c2ccccc2)=NO1 (stereo not given)

Result string:
> 100 µM (inactive)
11.4 µM (inactive)
27.5 µM (inactive)
18.1 µM (inactive)
13.7 µM (inactive)
13.1 µM (inactive)
> 100 µM (inactive)

* * *

- Test system: 786-0
- assay.text: NCI tumour cell line growth inhibition, 48 h
The source made the active and inactive calls. No stated cut-off is given here; in the data, active = GI50 up to about 1.1 µM and inactive = higher.
measured.attribute: GI50

A selection of reference data follows.
[[record]]
compound = "CC(C)(CN1CCCCC1)C(=O)/C=C/c1ccc(Cl)c(Cl)c1"
test_system = "786-0"
assay_value = "1.38 µM (inactive)"

[[record]]
compound = "Clc1n[nH]c2ccccc12"
test_system = "786-0"
assay_value = "> 100 µM (inactive)"

[[record]]
compound = "CC12CCC(=O)N1[C@@H](c1ccccc1)[C@@H](c1ccccc1)O2 (some centres not stated)"
test_system = "786-0"
assay_value = "> 100 µM (inactive)"

[[record]]
compound = "Cc1c2cnccc2c(C)c2c1c1ccccc1n2CCOC(=O)c1ccccc1"
test_system = "786-0"
assay_value = "11.5 µM (inactive)"

[[record]]
compound = "NC(=O)NNC/C(Cl)=C(\\Cl)C(=O)O"
test_system = "786-0"
assay_value = "> 100 µM (inactive)"

[[record]]
compound = "O=C(O)CCC(C(=O)O)N1C(=O)C2C3CCC(C3)C2C1=O (configuration not stated)"
test_system = "786-0"
assay_value = "> 100 µM (inactive)"

[[record]]
compound = "O=C1CC(C(OCc2ccccc2)C(OCc2ccccc2)C(OCc2ccccc2)C(COCc2ccccc2)OCc2ccccc2)CC(=O)N1 (configuration not stated)"
test_system = "786-0"
assay_value = "> 100 µM (inactive)"

[[record]]
compound = "O=C1/C(=N\\NC(=S)Nc2ccc(Cl)cc2)c2cc([N+](=O)[O-])ccc2N1CN1CCOCC1"
test_system = "786-0"
assay_value = "4.41 µM (inactive)"


For each entry beneath this line, provide reported GI50.
1. O=c1cc(-c2ccncc2)[nH]c2cc3c(cc12)OCO3
2. COC(=O)C1=CC2C(=O)OC1C1C(=O)NC(=O)C21 (configuration not stated)
3. COc1ccc(N2C(=O)CC(C3CC(C(C)(C)C)CCC3=O)C2=O)cc1 (configuration not stated)
4. O=C(O)CCSC(=O)Nc1ccccc1Cl
5. C=CC(CCc1ccc(C(=O)OCC)cc1)c1c(N)nc(N)[nH]c1=O (configuration not stated)
6. Cn1cc[n+](-c2cc(=O)n(C)c(=O)[n-]2)c1
7. CC(C)=CC[C@H]1C[C@]2(CC=C(C)C)C(=O)[C@@](CC=C(C)C)(C(=O)C(C(=O)c3ccccc3)=C2O)C1(C)C [6-EPI-CLUSIANONE]
8. COc1ccc(C2C(C#N)=C(S)N(C3OC(CO)C(O)C(O)C3O)C(c3ccccc3)=C2C(C)=O)cc1 (configuration not stated)

Result string:
["64.6 µM (inactive)", "> 100 µM (inactive)", "> 100 µM (inactive)", "> 100 µM (inactive)", "> 100 µM (inactive)", "> 100 µM (inactive)", "5.51 µM (inactive)", "67.3 µM (inactive)"]

For each entry beneath this line, provide reported GI50.
1. Nc1ccc2ncc(Nc3ccc(Cl)c(Cl)c3)nc2c1
2. CCC(Nc1ncnc2nc[nH]c12)C(=O)O (configuration not stated)
3. O=C(CSc1nnc(Cc2ccccc2)o1)Nc1cccc(Cl)c1
4. Cn1cnc([N+](=O)[O-])c1Sc1nnc(-c2cccnc2)n1C
5. CCc1c(N=[N+]=[N-])c2ccccc2oc1=O

Result string:
1. 39.6 µM (inactive)
2. > 100 µM (inactive)
3. 96.8 µM (inactive)
4. 18.5 µM (inactive)
5. > 100 µM (inactive)

Query string: Name the recorded GI50 of the compound listed here: `O=C(CSc1nnc(-c2ccc(/N=C\c3ccc(Cl)cc3)cc2)o1)Nc1ccccc1Cl`
Result string: > 100 µM (inactive)

* * *

- System: HOP-62
- assay.text: NCI tumour cell line growth inhibition, 48 h
Activity calls are given as the source filed them. Rule as the data show it: active = GI50 up to about 1.1 µM and inactive = higher.
Pick one and only one: active, inactive

Solved entries:
[[record]]
compound = "CC1(O)OC(=O)C2=C1CCC1C2CCC2(C)C(O)CCC12 (configuration not stated)"
class_label = "inactive"

[[record]]
compound = "CC(=O)O[C@H]1CC[C@@]2(C)C(=CC[C@@H]3[C@@H]2CC[C@](C)(c2nnc(C)o2)[C@H]3CC#N)C1"
class_label = "inactive"

[[record]]
compound = "O=C1/C(=N\\NC(=S)Nc2ccc(Cl)cc2)c2cc([N+](=O)[O-])ccc2N1CN1CCOCC1"
class_label = "active"

[[record]]
compound = "Cc1cc(C)nc(NS(=O)(=O)c2ccc(Nc3c4ccccc4nc4c(C(=O)NCCO)cccc34)cc2)n1"
class_label = "inactive"


Query string: I'd appreciate the recorded outcome for `Cc1ccc(/C=C2\CCS(=O)(=O)c3ccccc3C2=O)cc1` from this test.
Result string: inactive

Query string: I'd appreciate the recorded outcome for CC(C)(C)[Si](C)(C)OCC1OC(n2cnc3c(NC(=O)c4ccccc4)ncnc32)CC1O (configuration not stated) from this test.
Result string: inactive

Query string: I'd appreciate the recorded outcome for `O=C(/C=C\c1cccc2ccccc12)c1ccc(F)cc1` from this test.
Result string: inactive

* * *

Kindly state GI50 for each of the entries shown.
- Test system: UACC-62
- assay.text: NCI tumour cell line growth inhibition, 48 h
The source made the active and inactive calls. Cut-off read from the data, not from the text of the source: active = GI50 up to about 1.1 µM and inactive = higher.

[[record]]
compound = "CC(C)(C)c1cc(C(=O)O)c(C(c2ccccc2)c2ccccc2C(=O)O)c(C(=O)O)c1 (stereo not given)"
measured_attribute = "GI50"
assay_value = "> 100 µM (inactive)"

[[record]]
compound = "O=C(O)CCSC(=O)Nc1ccccc1Cl"
measured_attribute = "GI50"
assay_value = "> 100 µM (inactive)"

[[record]]
compound = "C=CCCC(=O)C(=[N+]=[N-])C(=O)CCC(=O)c1ccccc1"
measured_attribute = "GI50"
assay_value = "> 10 µM (inactive)"

[[record]]
compound = "COCP1(=S)OC(C)CCN1C(C)C (stereo not given)"
measured_attribute = "GI50"
assay_value = "> 100 µM (inactive)"


Here is the next item to consider.
Query string: Name the recorded GI50 of the compound listed here: CC(=O)OCC1OC(n2c(C)c(/N=N/c3ccccc3)c(C)c(C#N)c2=S)C(OC(C)=O)C(OC(C)=O)C1OC(C)=O (stereo not given)
Result string: 14.8 µM (inactive)
